These measurements were taken from ChEMBL document CHEMBL1777741.

Assay: Half life in dog
Format: ADME, organism-based, Canis lupus familiaris
Conditions: in vivo
metric-name: half-life (h)

a = COC[C@H](C)Oc1cc(O[C@@H](C)Cc2ccccc2)cc(C(=O)Nc2ccc(C(=O)O)cn2)c1
b = COC[C@H](C)Oc1cc(Oc2cc(F)cc(F)c2)cc(C(=O)Nc2ccc(C(=O)O)cn2)c1
Hi there, can you help? I need to know whether a or b has lower measured half-life. Provide the label of your selected option as the answer.
a

---

Experiment: Bioavailability in dog
Type: ADME, organism-based, Canis lupus familiaris
Conditions: in vivo
metric-name: bioavailability

I'd like to know its bioavailability. The molecule in question is COC[C@H](C)Oc1cc(Oc2cc(F)cc(F)c2)cc(C(=O)Nc2ccc(C(=O)O)cn2)c1
> 100%

---

Biological target: Hexokinase-4 (Homo sapiens)
Sequence (P35557 whole entry): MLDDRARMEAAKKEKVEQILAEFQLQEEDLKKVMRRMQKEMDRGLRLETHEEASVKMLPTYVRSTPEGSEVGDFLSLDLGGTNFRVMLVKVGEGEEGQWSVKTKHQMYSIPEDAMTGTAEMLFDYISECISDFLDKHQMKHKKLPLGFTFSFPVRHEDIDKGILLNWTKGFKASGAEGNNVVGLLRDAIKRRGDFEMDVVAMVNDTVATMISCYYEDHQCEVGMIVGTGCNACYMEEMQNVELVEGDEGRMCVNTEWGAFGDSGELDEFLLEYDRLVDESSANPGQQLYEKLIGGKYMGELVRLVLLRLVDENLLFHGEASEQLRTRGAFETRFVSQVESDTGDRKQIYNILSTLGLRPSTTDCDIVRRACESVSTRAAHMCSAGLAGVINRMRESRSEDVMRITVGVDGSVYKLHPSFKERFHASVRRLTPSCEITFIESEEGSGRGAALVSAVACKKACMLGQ
Assay: Activation of His-tagged recombinant glucokinase expressed in Escherichia coli using [14C]-glucose substrate by […]
metric-name: EC50 (nM)

A = CC(C)Oc1cc(OC2Cc3ccccc3C2)cc(C(=O)Nc2ccc(C(=O)O)cn2)c1
B = COC[C@H](C)Oc1cc(Oc2cccc(N(C)C)c2)cc(C(=O)Nc2ccc(C(=O)O)cn2)c1
C = COC[C@H](C)Oc1cc(Oc2ccc(S(C)(=O)=O)cc2)cc(C(=O)Nc2ccc(C(=O)O)cn2)c1
D = CC(C)Oc1cc(O[C@@H](C)c2ccccc2)cc(C(=O)Nc2ccc(C(=O)O)cn2)c1
Rank the items in ascending order with respect to EC50. # output: labels, in the requested order
C, A, D, B
(C: 60 nM, A: 100 nM, D: 150 nM, B: 400 nM)

---

// reported hepatocyte CLint per item
Experiment: Intrinsic clearance in human hepatocytes measured per 10^6 cells
Format: ADME, cell-based, Liver, Hepatocyte

smiles-input: COC[C@H](C)Oc1cc(O[C@@H](C)Cc2ccccc2)cc(C(=O)Nc2ccc(C(=O)O)cn2)c1
metric-name: hepatocyte CLint
result: < 1 µL/min/1e6 cells

Now turn to the next molecule.
I'd like to know its hepatocyte CLint. The molecule in question is COC[C@H](C)Oc1cc(Oc2cc(F)cc(F)c2)cc(C(=O)Nc2ccc(C(=O)O)cn2)c1
< 1 µL/min/1e6 cells

---

Experiment: in vitro
Details: rat, plasma
metric-name: fraction unbound

Below, 3 compounds whose answers are already recorded.
smiles-input: COC[C@H](C)Oc1cc(Oc2cccc(F)c2)cc(C(=O)Nc2ccc(C(=O)O)cn2)c1
fraction unbound: 0.0021

smiles-input: COC[C@H](C)Oc1cc(Oc2cc(F)cc(F)c2)cc(C(=O)Nc2ccc(C(=O)O)cn2)c1
fraction unbound: 0.0023

smiles-input: CC(C)Oc1cc(O[C@@H](C)c2ccccc2)cc(C(=O)Nc2ccc(C(=O)O)cn2)c1
fraction unbound: 0.0035

1 = COC[C@H](C)Oc1cc(Oc2ccccc2)cc(C(=O)Nc2ccc(C(=O)O)cn2)c1
2 = COC[C@H](C)Oc1cc(OC[C@H](C)c2ccccc2)cc(C(=O)Nc2ccc(C(=O)O)cn2)c1
3 = COC[C@H](C)Oc1cc(O[C@@H](C)Cc2cc(F)cc(F)c2)cc(C(=O)Nc2ccc(C(=O)O)cn2)c1
Could you please order the items by fraction unbound, going from the lowest number to the highest? # output: labels, in the requested order
3, 2, 1
(3: 0.001, 2: 0.0033, 1: 0.0055)
